assay: Cmax in Sprague-Dawley rat at 2 mg/kg, iv at 5 mins; format: ADME, organism-based; parameters: dose 2 mg/kg, route intravenous; details: in vivo

smiles_data: O=C(NCc1ccc(-c2cc(NC(=O)c3ccc(OCCN4CCCC4)cc3)[nH]n2)cc1)OCc1ccccc1
unit_text: µM
Cmax: 5.43

====

test: AUC (0 to 4 hrs) in rat at 2 mg/kg, iv; format: ADME, organism-based; design: time < 4 hr, dose 2 mg/kg, route intravenous; conditions: plasma
We begin with a simple list: items and their reported AUC(0-t) at 4 h.

smiles_data: Cc1cc(COC(=O)NCc2ccc(-c3cc(NC(=O)c4ccc(OCCN5CCOCC5)cc4)[nH]n3)cc2)no1
unit_text: ng·h/mL
AUC(0-t) at 4 h: 1030

smiles_data: CN1CCN(c2ccc(C(=O)Nc3cc(-c4ccc(CNC(=O)OCc5cccnc5)cc4)n[nH]3)cc2)CC1
unit_text: ng·h/mL
AUC(0-t) at 4 h: 272

smiles_data: O=C(NCc1ccc(-c2cc(NC(=O)c3ccc(OCCN4CCCC4)cc3)[nH]n2)cc1)OCc1cccnc1
unit_text: ng·h/mL
AUC(0-t) at 4 h: 266

smiles_data: Cc1nc(Nc2cc(-c3ccc(CNC(=O)OCc4cc(C)on4)cc3)n[nH]2)cc(N2CCN(CCO)CC2)n1
unit_text: ng·h/mL
AUC(0-t) at 4 h: 443

smiles_data: Cc1cc(COC(=O)NCc2ccc(-c3cc(NC(=O)c4ccc(OCCN5CCCC5)cc4)[nH]n3)cc2)no1
unit_text: ng·h/mL
AUC(0-t) at 4 h: 448

smiles_data: O=C(NCc1ccc(-c2cc(NC(=O)c3ccc(OCCN4CCCC4)cc3)[nH]n2)cc1)OCc1ccccc1
unit_text: ng·h/mL
AUC(0-t) at 4 h: 1380

====

We begin with a simple list: items and their reported IC50.
Target: Receptor-type tyrosine-protein kinase FLT3 (Homo sapiens)
Sequence (P36888 whole entry): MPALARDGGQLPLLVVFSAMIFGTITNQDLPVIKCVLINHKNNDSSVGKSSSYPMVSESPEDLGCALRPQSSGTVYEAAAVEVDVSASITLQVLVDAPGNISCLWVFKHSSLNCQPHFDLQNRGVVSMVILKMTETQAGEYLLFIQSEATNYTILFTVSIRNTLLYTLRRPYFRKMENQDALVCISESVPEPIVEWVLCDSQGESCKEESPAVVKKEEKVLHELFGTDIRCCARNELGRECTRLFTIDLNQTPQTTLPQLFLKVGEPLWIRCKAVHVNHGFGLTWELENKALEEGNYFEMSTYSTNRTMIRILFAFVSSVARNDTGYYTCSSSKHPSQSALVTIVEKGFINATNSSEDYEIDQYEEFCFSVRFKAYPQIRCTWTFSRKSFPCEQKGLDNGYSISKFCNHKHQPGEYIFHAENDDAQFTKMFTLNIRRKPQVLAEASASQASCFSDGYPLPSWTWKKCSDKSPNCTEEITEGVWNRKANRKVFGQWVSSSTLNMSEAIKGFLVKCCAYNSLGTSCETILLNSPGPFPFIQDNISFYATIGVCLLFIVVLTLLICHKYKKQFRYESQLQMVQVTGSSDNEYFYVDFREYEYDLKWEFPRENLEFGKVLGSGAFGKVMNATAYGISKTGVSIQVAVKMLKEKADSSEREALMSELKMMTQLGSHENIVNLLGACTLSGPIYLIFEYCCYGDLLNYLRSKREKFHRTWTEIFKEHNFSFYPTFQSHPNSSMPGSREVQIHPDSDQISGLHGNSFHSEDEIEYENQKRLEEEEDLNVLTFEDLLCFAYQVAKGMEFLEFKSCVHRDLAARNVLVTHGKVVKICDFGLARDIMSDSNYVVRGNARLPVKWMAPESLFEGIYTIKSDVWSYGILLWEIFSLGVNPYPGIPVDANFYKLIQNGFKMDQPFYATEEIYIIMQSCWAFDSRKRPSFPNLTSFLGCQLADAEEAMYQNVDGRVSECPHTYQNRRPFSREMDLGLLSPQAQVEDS

smiles_data: CN1CCN(c2ccc(C(=O)Nc3cc(-c4ccc(CNC(=O)OCc5cccnc5)cc4)n[nH]3)cc2)CC1
IC50 / nM: 14
//
smiles_data: CN1CCN(c2ccc(C(=O)Nc3cc(-c4ccc(CNC(=O)Oc5ccccc5)cc4)n[nH]3)cc2)CC1
IC50 / nM: 16
//
smiles_data: CN1CCN(c2ccc(C(=O)Nc3cc(-c4ccc(NC(=O)Oc5ccccc5)cc4)n[nH]3)cc2)CC1
IC50 / nM: 12
//
smiles_data: O=C(NCc1ccc(-c2cc(NC(=O)c3ccc(OCCN4CCCC4)cc3)[nH]n2)cc1)OCc1cccnc1
IC50 / nM: 35
//
smiles_data: Cc1nc(Nc2cc(-c3ccc(CNC(=O)OCc4cc(C)on4)cc3)n[nH]2)cc(N2CCN(CCO)CC2)n1
IC50 / nM: 72
//
smiles_data: O=C(NCc1ccc(-c2cc(NC(=O)c3ccc(OCCN4CCOCC4)cc3)[nH]n2)cc1)OCc1ccccc1
IC50 / nM: 17
//
smiles_data: O=C(NCc1ccc(-c2cc(NC(=O)c3ccc(OCCCN4CCCC4)cc3)[nH]n2)cc1)OCc1ccccc1
IC50 / nM: 19
